assay: Translocation study across HPEC monolayer on collagen-coated 3 µm polycarbonate Transwell insert; conditions: human, Apparent permeability factor Pe, 2h, shaken (50 rpm), median ± mad
measured_parameter: Papp at 2 h, 100 µM

Task: // query Papp at 2 h, 100 µM value for entry COc1ccc2c(c1)c(CC(=O)O)c(C)n2C(=O)c1ccc(Cl)cc1 [indomethacin]
Result: 22.7 ×10⁻⁶ cm/s

---

test: Translocation study across BeWo monolayer on collagen-coated 3 µm polycarbonate Transwell insert; settings: human, Apparent permeability factor Pe, 2h, BeWo monolayer, shaken (50 rpm), median ± mad
measured_parameter: Papp at 2 h, 100 µM (×10⁻⁶ cm/s)
# value in ×10⁻⁶ cm/s; strip the unit string

Task: // query Papp at 2 h, 100 µM value for entry COc1ccc2c(c1)c(CC(=O)O)c(C)n2C(=O)c1ccc(Cl)cc1 [indomethacin]
Result: 37.2

---

assay: Translocation study across BeWo/HPEC co-culture (placental barrier model); conditions: human, Apparent permeability factor Pe, 2h, shaken (50 rpm), median ± mad
measured_parameter: Papp at 2 h, 100 µM (×10⁻⁶ cm/s)
# value in ×10⁻⁶ cm/s; strip the unit string

Task: // query Papp at 2 h, 100 µM value for entry COc1ccc2c(c1)c(CC(=O)O)c(C)n2C(=O)c1ccc(Cl)cc1 [indomethacin]
Result: 30.7

---

assay: in vitro; conditions: human, Permeability Pe, 1h
measured_parameter: Papp at 1 h, 100 µM (×10⁻⁶ cm/s)
# value in ×10⁻⁶ cm/s; strip the unit string

Task: // query Papp at 1 h, 100 µM value for entry Cc1cc(=O)n(-c2ccccc2)n1C [antipyrine]
Result: 79.3

---

assay: Translocation study across HPEC monolayer on collagen-coated 3 µm polycarbonate Transwell insert; conditions: human, Permeability factor P2h, static, without subtraction of Pmembrane
measured_parameter: Papp at 2 h, 100 µM (×10⁻⁶ cm/s)
# value in ×10⁻⁶ cm/s; strip the unit string

Task: // query Papp at 2 h, 100 µM value for entry "COc1ccc2c(c1)c(CC(=O)O)c(C)n2C(=O)c1ccc(Cl)cc1"
Result: 12.6

---

assay: Translocation across control (empty collagen-coated) insert membrane; conditions: not told, Permeability factor P2h, shaken
measured_parameter: Papp at 2 h

Task: // query Papp at 2 h value for entry "COc1ccc2c(c1)c(CC(=O)O)c(C)n2C(=O)c1ccc(Cl)cc1"
Result: 39.6 ×10⁻⁶ cm/s

---

experiment: Translocation study across BeWo monolayer on collagen-coated 3 µm polycarbonate Transwell insert; settings: human, Permeability P1h, this study, static, compared with BeWo monolayer literature values
measured_parameter: Papp at 1 h, 100 µM (×10⁻⁶ cm/s)
# value in ×10⁻⁶ cm/s; strip the unit string

Task: // query Papp at 1 h, 100 µM value for entry "COc1ccc2c(c1)c(CC(=O)O)c(C)n2C(=O)c1ccc(Cl)cc1"
Result: 19.9

---

assay: Translocation study across BeWo/HPEC co-culture (placental barrier model); details: human, Apparent permeability factor Pe, 2h, static, median ± mad
measured_parameter: Papp at 2 h, 100 µM (×10⁻⁶ cm/s)
# value in ×10⁻⁶ cm/s; strip the unit string

Task: // query Papp at 2 h, 100 µM value for entry COc1ccc2c(c1)c(CC(=O)O)c(C)n2C(=O)c1ccc(Cl)cc1 [indomethacin]
Result: 26.7

---

assay: in vitro; details: human, Permeability P1h
measured_parameter: Papp at 1 h, 100 µM (×10⁻⁶ cm/s)
# value in ×10⁻⁶ cm/s; strip the unit string

Task: // query Papp at 1 h, 100 µM value for entry Cc1cc(=O)n(-c2ccccc2)n1C [antipyrine]
Result: 36.2

---

test: Translocation study across BeWo monolayer on collagen-coated 3 µm polycarbonate Transwell insert; conditions: human, Permeability factor P2h, BeWo monolayer, shaken, without subtraction of Pmembrane
measured_parameter: Papp at 2 h, 100 µM (×10⁻⁶ cm/s)
# value in ×10⁻⁶ cm/s; strip the unit string

Task: // query Papp at 2 h, 100 µM value for entry "COc1ccc2c(c1)c(CC(=O)O)c(C)n2C(=O)c1ccc(Cl)cc1"
Result: 21.7

---

assay: Translocation study across BeWo monolayer on collagen-coated 3 µm polycarbonate Transwell insert; conditions: human, Apparent permeability factor Pe, 2h, BeWo monolayer, static, apical to basolateral, median ± mad
measured_parameter: Papp at 2 h, 100 µM (×10⁻⁶ cm/s)
# value in ×10⁻⁶ cm/s; strip the unit string

Task: // query Papp at 2 h, 100 µM value for entry "COc1ccc2c(c1)c(CC(=O)O)c(C)n2C(=O)c1ccc(Cl)cc1"
Result: 39.5

---

experiment: Translocation study across HPEC monolayer on collagen-coated 3 µm polycarbonate Transwell insert; details: human, Permeability factor P2h, shaken, without subtraction of Pmembrane
measured_parameter: Papp at 2 h, 100 µM (×10⁻⁶ cm/s)
# value in ×10⁻⁶ cm/s; strip the unit string

Task: // query Papp at 2 h, 100 µM value for entry COc1ccc2c(c1)c(CC(=O)O)c(C)n2C(=O)c1ccc(Cl)cc1 [indomethacin]
Result: 14.6

---

assay: Translocation study across BeWo monolayer on collagen-coated 3 µm polycarbonate Transwell insert; settings: human, Permeability factor P2h, BeWo monolayer, static, without subtraction of Pmembrane
measured_parameter: Papp at 2 h, 100 µM (×10⁻⁶ cm/s)
# value in ×10⁻⁶ cm/s; strip the unit string

Task: // query Papp at 2 h, 100 µM value for entry "COc1ccc2c(c1)c(CC(=O)O)c(C)n2C(=O)c1ccc(Cl)cc1"
Result: 19

---

assay: Translocation across control (empty collagen-coated) insert membrane; settings: not told, Permeability factor P2h, static, median ± mad
measured_parameter: Papp at 2 h (×10⁻⁶ cm/s)
# value in ×10⁻⁶ cm/s; strip the unit string

Task: // query Papp at 2 h value for entry "COc1ccc2c(c1)c(CC(=O)O)c(C)n2C(=O)c1ccc(Cl)cc1"
Result: 36.4

Data provenance is paper PMC5876397.
